B1: tRNA (parent)
chain: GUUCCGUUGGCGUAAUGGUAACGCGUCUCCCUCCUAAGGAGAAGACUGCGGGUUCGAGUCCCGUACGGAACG

Variants of: B1
Assay method text: yeast fitness relative to wild type (ratio to wild type); higher = fitter; tRNA-Arg(CCU), competitive growth, 37 C, YPD
Variants at the floor of the assay were thinned out.
Returns one of 1 or -1; 1 when yeast fitness is >= 0.6.

INSERT INTO measurements (variant_string, category_label) VALUES
  ('G6C C33U G52A', -1),
  ('C5A C29G A43G', -1),
  ('G41A C49U G51C C61U', -1),
  ('U7C A45C A70G', -1),
  ('A14G C22A C27A C29U A42C A70C', -1),
  ('U13G C22U A45U U59C', -1),
  ('A15U C24A C34G G39U A65G', 1),
  ('A42G C62A', 1),
  ('G12A U32C U47A C49G C60U', -1),
  ('G6C U28G', 1),
  ('U2C C11A C22G U53G', -1),
  ('U13A A42U G63A', 1),
  ('C5G U32A G56A', 1),
  ('U3C U8C C30G U35C A42G C49U G56A G58A A70C', -1),
  ('C30G C33G C60G C62U', -1),
  ('C5G A15G', 1),
  ('A20G C27A A40G A45C', -1),
  ('U19C U53C C61A G68A', -1),
  ('A36U A45U C46A G68A', -1),
  ('G9A C30U C33A A36U A43U U54C G56A', 1),
  ('C62U A65C A70C', 1),
  ('U54C U64C', 1),
  ('A15G A36C', -1),
  ('C4U G10A A15C A57C C66G', -1),
  ('A15G U26A C66A', -1),
  ('A21C A40C', 1),
  ('C31U C60U G67A A69U', -1),
  ('U35C C49A', 1),
  ('C4G G12U A14C C49G A57U C61G', -1),
  ('U26G C49A', 1),
  ('G17A A69C', 1),
  ('A36U A40G', -1),
  ('A21C C27U A57G C62U', -1),
  ('G48A C49G C60G', -1),
  ('G9A A14G C60U C62U', -1),
  ('A15G C29G C33A G67A', -1),
  ('G9A A40G U64C', 1),
  ('A20C C24G C27A G44A U59G A65C', -1),
  ('A20U C30A', 1),
  ('A21C C27U C49U G58C C61A A65U A69U', -1),
  ('G6A C22U U53G', 1),
  ('A36C G63A', 1),
  ('A14C C22G G67A', -1);
